Reported t1/2 values are given for each entry in this list.
System: Liver microsomes
Method Description: Half life in rat liver microsomes at 1 uM
Assay type: ADME, Microsome
The reply should contain only the number, in h.

Solved entries:
> print(dat)
                               entry.smiles  readout.units  readout.value
1  Cc1cc(/C=C/C#N)cc(C)c1Oc1cc(Nc2ccc(C#N)cc2)c(N)cc1CO              h            1.4
2  Cc1cc(/C=C/C#N)cc(C)c1Nc1ccnc(Nc2ccc(C#N)cc2)n1              h              2
3  Cc1cc(/C=C/C#N)cc(C)c1Oc1cc(Nc2ccc(C#N)cc2)c(N)cc1C(N)=O              h           2.03

Then this molecule:
Please state recorded t1/2 (tested on Liver microsomes) of Cc1cc(/C=C/C#N)cc(C)c1Oc1cc(Nc2ccc(C#N)cc2)c(N)cc1[N+](=O)[O-]
2.32
